This collection of values is drawn from paper PMC7497253.

Tested Target: WNV NS2B-NS3 protease (WNV-Pro) (West Nile virus)
Construct: NS3 has to form a complex with its cofactor NS2B to achieve proteolytic activity; The viral protease consists of the N‐terminal third of the nonstructural protein NS3
Sequence (P06935 1424-1463): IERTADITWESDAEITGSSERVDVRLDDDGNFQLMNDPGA
Sequence (P06935 1502-1679): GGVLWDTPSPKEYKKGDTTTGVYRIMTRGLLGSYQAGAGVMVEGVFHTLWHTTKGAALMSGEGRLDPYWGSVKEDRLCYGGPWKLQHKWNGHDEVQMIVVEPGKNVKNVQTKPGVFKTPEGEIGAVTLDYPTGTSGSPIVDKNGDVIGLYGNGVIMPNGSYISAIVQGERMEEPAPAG
Assay Remarks: Enzyme kinetics with the covalent WNV NS2B-NS3 construct, substrate Phac-Leu-Lys-Lys-Arg-AMC
Assay type: biochemical
Starred links: 1 amine or outer side, 2 acyl side, 3 side chain; linkers in the order of their positions; H or OH if unused. Non-standard residues stand in square brackets, D forms with d. Residues, ends and D or L forms follow the SMILES beside them. dεLys(Nα-amidino) = N=C(N)N[C@H](CCCCN[*:1])C(=O)[*:2]
Ki overview

Compound: N=C(N)N[C@H]1CCCCNC(=O)[C@H](CCCCN)NC(=O)[C@H](CCCCN)NC(=O)Cc2ccc(cc2)CNC(=O)CCCNC1=O
Tested Target: WNV NS2B-NS3 protease (WNV-Pro) (West Nile virus)
Unit String: µM
Ki: 6.3

Compound: C[C@@H]1NC(=O)[C@H](NC(=N)N)CCCCNC(=O)[C@H](CCCCN)NC(=O)[C@H](CCCCN)NC(=O)Cc2cccc(c2)CNC1=O
Tested Target: WNV NS2B-NS3 protease (WNV-Pro) (West Nile virus)
Unit String: µM
Ki: 1.39

Compound: N=C(N)N[C@@H]1CCCCNC(=O)[C@H](CCCCN)NC(=O)[C@H](CCCCN)NC(=O)Cc2cccc(c2)CNC(=O)CNC1=O
Tested Target: WNV NS2B-NS3 protease (WNV-Pro) (West Nile virus)
Unit String: µM
Ki: 0.138

Compound: N=C(N)N[C@@H]1CCCCNC(=O)[C@H](CCCCN)NC(=O)[C@H](CCCCN)NC(=O)CNC(=O)CNC(=O)CNC1=O [Inhibitor 25] (cyclo(GGGKK[dεLys(Nα-amidino)]))
Tested Target: WNV NS2B-NS3 protease (WNV-Pro) (West Nile virus)
Unit String: µM
Ki: 0.129

Compound: N=C(N)N[C@H](CCCCNC(=O)[C@H](CCCCN)NC(=O)[C@H](CCCCN)NC(=O)Cc1cccc(CNC(=O)CN)c1)C(=O)O
Tested Target: WNV NS2B-NS3 protease (WNV-Pro) (West Nile virus)
Unit String: µM
Ki: 51.6

Compound: N=C(N)N[C@@H]1CCCCNC(=O)[C@H](CCCCN)NC(=O)[C@H](CCCCN)NC(=O)Cc2cccc(c2)CNC(=O)[C@H]2CCCN2C1=O
Tested Target: WNV NS2B-NS3 protease (WNV-Pro) (West Nile virus)
Unit String: µM
Ki: 0.85

Compound: N=C(N)N[C@@H]1CCCCNC(=O)[C@H](CCCCN)NC(=O)[C@H](CCCCN)NC(=O)Cc2cccc(c2)NC(=O)CCCNC1=O
Tested Target: WNV NS2B-NS3 protease (WNV-Pro) (West Nile virus)
Unit String: µM
Ki: 16.5

Compound: N=C(N)N[C@@H]1CCCCNC(=O)[C@H](CCCCN)NC(=O)[C@H](CCCCN)NC(=O)Cc2ccc(cc2)CNC(=O)CCCNC1=O
Tested Target: WNV NS2B-NS3 protease (WNV-Pro) (West Nile virus)
Unit String: µM
Ki: 4.97

Compound: N=C(N)N[C@@H]1CCCCNC(=O)[C@H](CCCCN)NC(=O)[C@H](CCCCN)NC(=O)CCCCNC(=O)CNC1=O
Tested Target: WNV NS2B-NS3 protease (WNV-Pro) (West Nile virus)
Unit String: µM
Ki: 1.22

Compound: CC(C)[C@H]1NC(=O)[C@H](NC(=N)N)CCCCNC(=O)[C@H](CCCCN)NC(=O)[C@H](CCCCN)NC(=O)Cc2cccc(c2)CNC1=O
Tested Target: WNV NS2B-NS3 protease (WNV-Pro) (West Nile virus)
Unit String: µM
Ki: 0.439

Compound: N=C(N)N[C@@H]1CCCCNC(=O)[C@H](CCCCN)NC(=O)[C@H](CCCCN)NC(=O)CCCCCNC(=O)CNC1=O
Tested Target: WNV NS2B-NS3 protease (WNV-Pro) (West Nile virus)
Unit String: µM
Ki: 0.973

Compound: C[C@H]1NC(=O)[C@H](NC(=N)N)CCCCNC(=O)[C@H](CCCCN)NC(=O)[C@H](CCCCN)NC(=O)Cc2cccc(c2)CNC1=O
Tested Target: WNV NS2B-NS3 protease (WNV-Pro) (West Nile virus)
Unit String: µM
Ki: 0.237
